Molecular target: T1, hNPR1-ANP complex (human, UniProt P01160 124-151, limits assumed)
T1 construct: hNPR1 antigen in the presence of ANP; also called hNPR1 + 100 nM ANP
T1 sequence: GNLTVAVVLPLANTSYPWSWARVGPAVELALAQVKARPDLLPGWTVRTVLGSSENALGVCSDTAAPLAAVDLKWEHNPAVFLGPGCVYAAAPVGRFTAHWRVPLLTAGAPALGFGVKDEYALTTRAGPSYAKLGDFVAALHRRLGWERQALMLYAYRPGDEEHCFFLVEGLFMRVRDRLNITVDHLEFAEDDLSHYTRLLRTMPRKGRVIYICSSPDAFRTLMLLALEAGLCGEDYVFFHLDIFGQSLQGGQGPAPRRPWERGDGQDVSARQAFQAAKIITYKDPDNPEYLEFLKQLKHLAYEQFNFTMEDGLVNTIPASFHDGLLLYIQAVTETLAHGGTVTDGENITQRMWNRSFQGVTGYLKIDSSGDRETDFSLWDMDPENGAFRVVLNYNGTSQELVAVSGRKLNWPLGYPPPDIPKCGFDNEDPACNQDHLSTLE
T1 sequence (peptide): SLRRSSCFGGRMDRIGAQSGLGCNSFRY
Experiment: ELISA, 1 µM IgG
Parameters: unit not given here
ELISA binding at 1 µM IgG overview
assay.readout: ELISA binding at 1 µM IgG

1) YY07 (IgG format) (antibody, V domains shown, also called YY07_LALA) VH: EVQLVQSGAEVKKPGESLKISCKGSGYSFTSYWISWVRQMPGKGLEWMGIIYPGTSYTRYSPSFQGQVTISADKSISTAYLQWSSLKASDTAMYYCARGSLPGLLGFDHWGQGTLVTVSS VL: QSVLTQPPSVSGAPGQRVTISCTGSSSNIGAGYDVHWYQQLPGTAPKLLIYGNSNRPNGVPDRFSGSKSGTSASLAITGLQAEDEADYYCQSYDSPTSSSVFGGGTKLTVLG : 24
2) YY05 (IgG format) (antibody, V domains shown, also called YY05_LALA) VH: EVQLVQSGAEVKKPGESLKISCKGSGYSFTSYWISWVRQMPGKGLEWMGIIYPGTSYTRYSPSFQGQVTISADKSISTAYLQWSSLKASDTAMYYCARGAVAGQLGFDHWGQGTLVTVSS VL: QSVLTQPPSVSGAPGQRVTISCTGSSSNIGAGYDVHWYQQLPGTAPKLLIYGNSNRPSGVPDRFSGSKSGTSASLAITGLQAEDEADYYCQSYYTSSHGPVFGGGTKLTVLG : 32
3) YY06 (IgG format) (antibody, V domains shown, also called YY06_LALA) VH: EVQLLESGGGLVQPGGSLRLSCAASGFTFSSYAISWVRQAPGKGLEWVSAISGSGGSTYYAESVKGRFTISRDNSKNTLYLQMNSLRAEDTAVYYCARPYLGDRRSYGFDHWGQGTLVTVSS VL: QSALTQPASVSGSPGQSITISCTGTSSDVGSYNLVSWYQQHPGKAPKLMIYEGSKRPSGVSNRFSGSKSGNTASLTISGLQAEDEADYYCSSYGFHIVVVVFGGGTKLTVLG : 102
4) YY04 (IgG format) (antibody, V domains shown, also called YY04_LALA) VH: EVQLVESGGGLVKPGGSLRLSCAASGFTFSNYWISWVRQAPGKGLEWVGRIKSKTYGGTTDYAEPVKGRFTISRDDSKNTLYLQMNSLKTEDTAVYYCAREKYSIRARGHGDYGFDVWGQGTLVTVSS VL: DIQMTQSPSSLSASVGDRVTITCRASQGISNYLAWYQQKPGKVPKLLIYAASTLQSGVPSRFSGSGSGTDFTLTISSLQPEDVATYYCQQGYHAPFTFGQGTKVEIKR : 60
